- Protocol: qHTS assay to identify small molecule antagonists of the vitamin D receptor (VDR) signaling pathway - cell viability counter screen (AID 743225); note: nearly all actives have a fitted effect of over 50% in size
- Condition Notes: VDR-bla HEK293T viability, CellTiter-Glo luminescence, 16 h; series mostly up to 61 µM
- From the text: U.S. Tox21 Program National Center for Advancing Translational Sciences [NCATS] NIH Chemical Genomics Center [NCGC] U.S. Environmental Protection Agency [EPA] National Institutes of Environmental Health Sciences [NIEHS] National Toxicology Program [NTP] U.S. Food and Drug Administration [FDA] Tox21 Assay Overview: The vitamin D receptor (VDR), a member of nuclear hormone receptor superfamily, plays a critical role in calcium homeostasis and bone metabolism. […]
Inconclusive results are not listed. Active and inactive are the calls of the source. Calls come from the whole dose curve; as a rule, active = well fitted cell-killing curve with a large enough effect in the repeat runs; inconclusive = weak or mixed curves, or effect the other way; inactive = no such curve, though single readings can be large or run the other way.
Outcome field: choose from active, inactive

Solved entries:
{"columns": ["Smiles Str", "Class Label"],
 "data": [
  ["Cc1oc(-c2ccccc2)nc1CCOc1ccc(C[C@H](Nc2ccccc2C(=O)c2ccccc2)C(=O)O)cc1", "active"],
  ["Oc1ccc(-c2ccccc2)c(Cl)c1", "inactive"]
]}

Identify the outcome logged in this assay for the molecule shown: `CC(C)(C)C1=CC(=O)C=C(C(C)(C)C)C1=O` inactive

Name the outcome recorded for `CO[C@H]1C=CO[C@@]2(C)Oc3c(C)c(O)c4c(O)c(cc(O)c4c3C2=O)NC(=O)/C(C)=C\C=C/[C@H](C)[C@H](O)[C@@H](C)[C@@H](O)[C@@H](C)[C@H](OC(C)=O)[C@@H]1C` in the assay. inactive

Per the records of this test, what outcome belongs to `c1ccc(Sc2ccccc2)cc1` ? inactive

Can you look up the reported call for `CCc1cccc(C)c1` for me? inactive

I would be grateful if you could indicate the recorded call for `CCN(CC)CCSC(=O)C(c1ccccc1)c1ccccc1` . inactive

Which outcome was entered for the molecule `COc1ccc(-n2nc(CCC(=O)N(C)O)cc2-c2ccc(Cl)cc2)cc1` in this test? inactive

Name the outcome recorded for `CCCSS/C(CCO)=C(\C)N(C=O)Cc1cnc(C)nc1N` in the assay. inactive

Kindly provide the recorded test outcome for the following molecule: `C/C=C/C=N/NC(=O)c1ccncc1` inactive
